- protocol: yeast display, Sf9 membrane polyspecificity reagent, FACS + sequencing; frameworks hold sequencing errors
property_name: polyreactivity (PSR sort gate)

Worked cases, answers included:
QVQLVESGVGLVQAGGSLRLSCAASGFIFPYYTMGWYRQAPGKERELVAAISASSGRTYYADSVKGRFTISSDNAKNTVYLQMNSLKPEDTAVYYCAAKTYEPRKYEYWGQGTQVTVSS	high polyreactivity
QVQLVESGGGLVQAGGSLRLSCAASGSIFSYYVMGWYRQAPGKERELVAAISWSGGSTYYADSVKGRFTISRDNSKNTVYLQMNSLKPEDTAVYYCAAGTYPYYWGQGTQVTVSS	low polyreactivity
QVQLVESGGGLVQAGGSLRLSCADSGRTFYRNAMGWYRQAPGKERELVAAITWSAGSTYYADSVKGRFTISRDNAKNTVYLQMNSLKPEDSAVYYCAKYPSKSYVPGDYWGQGTQVTVSS	low polyreactivity
QVQHVESGGGLVQAGGSLRLSCSASGSTFGLYAMGWSRQAPGKETELVAVISWRGGSTYYADSVKGRFTISRDNAKNTVYLQMNSLKPEDTAVYYCAAYSRYPYVRYDYWGQGTQVTVSS	low polyreactivity
QVQLVESGGRLVQAGGSLRLSCASSGSTFVYYAMGWYRPAPGKERELVAVISDDGGTYYADSVKGRFTISRDNAKNTVYLQMNSLKPEDTAVYYCAIDYYGGAYYWYNDRSGDYWGQGTQVTVSS	low polyreactivity
QVQLVESGGGLVQAGGSLRLSCAASGSIFPWYAMGWYRQAPGNERELVAAINQIGGGGTNYADSVKGRFTISRDNAKNTVYLQMNSLKPEDTAVYYCAADHVWIRAYRFTKGDDYWGQGTQVTVSS	low polyreactivity

Query: Which value of polyreactivity (PSR sort gate) has been reported for `QVQLVESGGGLVQAGGSLRLSCAASGSIFYKYVMGWYRQAPGKERELVAAISRGGGSTYYADSVKGRFTISRDNAKNSVYLQMNSLKPEDTAVYYCNAVGRPRYGHGFDHWGQGTQETVSS` in the records?
Result: high polyreactivity

Query: Field entry: `QVQLVESGGGLVQAGGSLRVSCAASGSIFQYYGMGWYRQAPGKERELVAAISRGGSTNYADSVKGRFTISRDYAKNTGYLQMNSLKPEDTAVYYCNARTYRKAYSGYNYWGQGTQVTVSS`
Result: high polyreactivity

Query: Field entry: `QVQLVESGGGLVQAGGSLRLSCAASGSIFGYYTMGLYRQAPGKERELVATINWSGGSTYYADSVKGRFTISRDNAKNTVYLQMNSLKPEDTAVYYCAKTRPYLRYWDSSTYDYWGQGTQVTVSS`
Result: high polyreactivity

----------
- protocol: yeast display, Sf9 membrane polyspecificity reagent, FACS + sequencing; frameworks hold sequencing errors
property_name: polyreactivity (PSR sort gate)

Worked cases, answers included:
QVQLVESGGGLVQAGGSLRLSCAASGNIFFGYAMGWYRQAPGKEREYVATITKIGGSTYYADSVKGRFTISRDNAKNTVYLQMNSLKPEDTAVYYCAARLGHSVNPGGERWDVEYWGQGTQVTVSS	low polyreactivity
QVQLVESGGGLVQAGGSLRLSCAASGRILRSNAMGWYRQAPGKERELVAAITSSGGSTRYADSVKGRFTISRDNAKNTVYLQMNSLKPEDTAVYYCAARYRQGFQAGHGYWGQGTQVTVSS	high polyreactivity
QVQLVESGGGLVQAGGSLRLSCAASGSTFLYYAMGWYRQAPGKERELVASITGSGSNTYYADSVKGRFTISRDNAKNTVYLQMNSLKREDTAVYYCATDPQSDIPSWLWYWGEYDYWGHGTQVTVSS	low polyreactivity
QVQLVESGGGLVQAGGSLRLSCAASGSICGSYAMGWYRQAPGKERELVAAITRSGSRTYYADSVKGRFTISRDNAKNTVYLQMISLKPEDTAVYFCATGYPGGFDYWGQGTQVTVSS	high polyreactivity
QVQLVESGGGLVQAGGSLRISCAASGFTFYRYAMGWSIPAPGKERELVAAISSHGDSTYYADSVKGRFTISRDNAKNTVYLQMNSLKPEDTAVYYCNVETLYGYFLHFYLRYYHWGQGTQVTVSS	high polyreactivity

Query: Which value of polyreactivity (PSR sort gate) has been reported for `QVQLVESGGGLVQAGGSLRLSCAASGFTFYRYAMGWYRQAPGKERELVAAITWSGGATYYADSVKGRFTISRDNAKNTVYLQMNSLKPEDTAVYYCAADIYDGGFDYWGQGTQVTVSS` in the records?
Result: low polyreactivity

Query: Field entry: `QVQLVESGGGLVQAGGSLRLSCAASGRIFYSYARGWYRQAPGKERELVAAITESGGSTNYADSVKGRFTISRDNAKNSVYLQMNSLKPEDSAVYYCNARYKLTFNLYNYRGQGTQVTVSS`
Result: low polyreactivity

Query: Field entry: `QVQLVESGGGLVQAGGSLRLSCAASGFTFDGYAMGWYRQAPGKERELVAAITRRGGRTYYADSVKGRFTISRDNAKNTVYLQMNSLKPEDTAVYFCAAERYGDRFYGAYDYWGQGTQVTVSS`
Result: high polyreactivity

----------
- protocol: yeast display, Sf9 membrane polyspecificity reagent, FACS + sequencing; frameworks hold sequencing errors
property_name: polyreactivity (PSR sort gate)

Worked cases, answers included:
QVQLVESGGGLVQAGGSLRLSCAASGRIWWNAMGWYRPAPGNETELVAAIRWSGGITRYADSVKGRFTISRDNAKNTVDLQMHSLKPEDTAVYYCAARLGGSIRSKFDYWGQGTQVTVSS	high polyreactivity
QVQLVESGGGLVQAGGSLRLSCAASGSIFQIYAMGWYRQAPGKERELVAAINSGGITKYADSVKGRFTISRDNAKNTVYLQMNSLKPEDTAVYYCAKRYGWPYGRFDYWGQGTQVTVSS	low polyreactivity
QVQLVESGGGLVQAGGSLRLSCAASGSTFRFNTMGWYRQAPGKERGLVACIAAGTTTNYADSVKGRFTISRDNAKNTVYLQMNSLKPEDAAVYYCAALNAFNTGHWYWGQGTQVTVSS	low polyreactivity
QVQLVESGGGLVQAVGSLRLSCAASGSTFREYTMGWYRQAPGKERELVAAITNSGGSTYYADSVKGRFTISRDNAKNTVYLQMNSLKPEDTAVYYCAAEGRYFYFTVKMDYWGQGTQVTVSS	low polyreactivity
QVQLVESGGGLVQAGGSLRLSCAASGSIFWYNAMGWYRQAPGKERELVAAIRWRGGSTYYADSVKGRFTISRDNAKNTVYLQMNSLKPEDTAVYDCAAQVYVSQLYTSYYYWGQGTQVTVSS	high polyreactivity
QVQLVESGGGLVQAGGSLRLSCAASGGIFYLYAMGWYRQAPGKERELVAAISWSGTSTYYADSVKGRFTISRDNAKNTVYLQMNSLKPEDTAVYYCAADYERYYAKAINYDYWGQGTQVTVSS	low polyreactivity
QVQLVESGGGLVQAGGSLRLICAASGSIFVGNAMGWYRQAPGKERELVAAITSSGGRTYYADSVKGRFTISRDNAKNTVYLQMNSLKPEDTAVYYCNTSRTRRFSLWAYDYWGQGTQVTVSS	high polyreactivity
QVHLVESGRGLVQAGGSLRLSCAASGIIFYDYSMGWYRQAPGKERELVAAISWDGVSSYYADSVKGRFTISRDNAKNTVYLQMNSLKPEATAVYYCAARAVTDDDYEFDDWGQGTQVTVSS	low polyreactivity

Query: Which value of polyreactivity (PSR sort gate) has been reported for `HVQLVESGGGLVQAGGSLRLSCAASGFTFPIYTMGWYRQAPGKESELVAAISASGGRTYYADSVKGRFTISRDNAKNTVYFQMNSLNPEDTSVYFCAADGYRAPGNAYYYWGQGTQVTVSS` in the records?
Result: high polyreactivity

----------
- protocol: yeast display, Sf9 membrane polyspecificity reagent, FACS + sequencing; frameworks hold sequencing errors
property_name: polyreactivity (PSR sort gate)

QVQLVESGGGLVQAGGSLRLSCAASGSIFSTNAMGWYRQAPGKERELVAVITGIGGITYYADSVKGRFTISRDIAKNTVYLQMNSLIPEDTAVYYCAVGYWDSRYRYDLPNSDYWGQGTEVTVSS	low polyreactivity
QVQLVESGGGLVQAGGSLRLSCAASGSIFAVYAMGWYRQAPGKERELVATITGIDTGTYYADSVKGRFTISRDNAKNTVYLQMNSLKPEDTAVYYCAAVWRYRHLRFYYWGQGTQVTVSS	high polyreactivity
QVQLVESGGGLVQAGGSLRLSCAASGFTFNRYAMGWYRQAPGKERELVAAISARGGITYYADSVKGRFTISRDNAKNTVYLQMNSLKPEDTAVYYCNKRYSSWSGEHDYWGQGTQVTVSS	high polyreactivity
QVQLVESGGGLVQAGGSLRLSCAASGFIFGTYAMGWYRQAPGKERELVAAISRVGNTSYADSVKGRFTISRDNAKNTVYLQMNSLKPEDTAVYYCAADAPSWYDRQYDYWGQGTQVTVSS	low polyreactivity
QVQLEESGGGLLQAGGSLRLTCAASGFTFYYYAMGWYRLATGKERYLVAAISGGGGSTYYADSVKGRFTISRDNAKNTVYLPMNSMKPEDTAVYYCAAVGSWRYNYDYDYWGQGSQVTVSS	high polyreactivity

Query: Which value of polyreactivity (PSR sort gate) has been reported for `QVQLVESGGGLVQAGGSLRLSCAASGTFPGNAMGWYRQSPGKERELVATITRGGRTYYADSVKGRFTISRDNAKHTVYLQMNSLKPEDTAVYYCNTRVYFGKIRGYDYWGQGTQVTVSS` in the records?
Result: high polyreactivity

Query: Field entry: `QVQIVESGGGLVQAGGSLRLSCAASGSIFLRNAMGWYRQAPGKERELVASITWNGASTSYADSVKGRFTISRDNAKNTVYLQMNSLKPEDTAVYYCAAVTVQDSNLNYGYWGQGTQVTVSS`
Result: low polyreactivity
